- MEASUREMENT_TARGET: GABARAP, O95166
- Sequence (O95166 whole entry, the tested form may be a part): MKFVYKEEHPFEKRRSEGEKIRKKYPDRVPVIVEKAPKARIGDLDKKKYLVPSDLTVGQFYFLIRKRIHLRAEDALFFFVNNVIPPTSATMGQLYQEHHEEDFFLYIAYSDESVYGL
- PROTOCOL_NOTES: median log2 fold change of GCK-ALFA target abundance (FLAG IP / Myc IP barcode read proportion) (log2 ratio); each designed protein is fused to an ALFA-tag nanobody in HEK293 cells to bring the named protein to FLAG-tagged glucokinase (GCK); Myc marks an untargeted standard; higher = target protein stabilised (more abundant)
- CONDITION_LABEL: target protein: 3xFLAG-MCP-GCK-ALFA reporter; HEK293 landing pad (RPLP)
Whole data set: some 4,500 sequences, median “median log2 fold change of GCK-ALFA target abundance (FLAG IP / Myc IP barcode read proportion)” near 0.078, cut for the lowest 2% near -0.6. The full list was thinned out, with the lowest values kept by preference.
Label FALSE if median log2 fold change falls below 0.1; label TRUE in every other case.

>  <BINDER>
GBRAP_43_5767 (protein) SKELVEGAFETAILLLEDPSISEETKVKAIIAAMELAADEGYVDKELLEKVVELAGKTLSKESLEKILKAAKKLAKEYPESKEAFEEAAKKLEEAIAKKE

>  <ANSWER_LABEL>
TRUE

$$$$

State whether the measured median log2 fold change reaches 0.1, counting equality as reaching it, for GBRAP_52_6035 (protein) MEERMRELARRIVELLLAGREEEARRLIREAVETLSEEELKLLGEELARLAREAAPEDLDAIMEAAFLLADALEEGGYDEVLADDLLARVAAAAVANLQA FALSE

State whether the measured median log2 fold change reaches 0.1, counting equality as reaching it, for GBRAP_95_7033 (protein) EDDKLALESAIEVAVAAAELGDDDAAARALREALELLKKAGKVELDEELLKEAIDVIERVGVKKLPREDVLELLELLLEAAETEEVKELAEKAIERVKKR TRUE

State whether the measured median log2 fold change reaches 0.1, counting equality as reaching it, for GBRAP_35_5576 (protein) EDKEMLLETVEDLAEATIEAIKEGDVDLAIALLKAFLRTAKLAVEELENDLEALEKIAELLKKVIEEIKKHLADNPEMQKLLKELEKLLKEVKEKAEKVK FALSE

State whether the measured median log2 fold change reaches 0.1, counting equality as reaching it, for GBRAP_160_4655 (protein) SAELEELLEKIREIFEEALEMMKGETHEQRVAIARVMKGDVILLLEESPSVSDETVDEVDEVMDELVETIEENPDWTDEEIEEKIDEALEEIEEILEEDF FALSE

Source of measurements: the supplement of paper PMC12632987
